Each entry below carries its recorded pKd.
tested-on: Heme
assay-procedure: Binding affinity to heme after 4 hrs by equilibrium binding assay
pKd: −log10 of the molar value.
parameter-measured: pKd

molecule=Clc1ccc2c(NCCCN3CCN(C(c4ccccc4)(c4ccccc4)c4ccccc4)CC3)ccnc2c1 numeric_readout=5.27
molecule=CN(CCCNc1ccnc2cc(Cl)ccc12)CCCN1c2ccccc2CCc2ccccc21 numeric_readout=5.07
molecule=Clc1ccc2c(NCCN3CCN(C(c4ccccc4)c4ccccc4)CC3)ccnc2c1 numeric_readout=5.48
molecule=Clc1ccc2c(NCCCN3CCN(C(c4ccccc4)c4ccccc4)CC3)ccnc2c1 numeric_readout=5.52
molecule=Clc1ccc2c(NCCN3CCC(NC(c4ccccn4)c4ccccn4)CC3)ccnc2c1 numeric_readout=6.00
molecule="Clc1ccc2c(NCCCN3CCN(C4C5CC6CC(C5)CC4C6)CC3)ccnc2c1 (configuration not stated)" numeric_readout=5.60
molecule=CN(CCCN1c2ccccc2CCc2ccccc21)CCNc1ccnc2cc(Cl)ccc12 numeric_readout=5.14

Data origin, for the record: ChEMBL document CHEMBL1250478
